test-target: PI3Kα (Homo sapiens (Human))
Sequence (P42336 whole entry): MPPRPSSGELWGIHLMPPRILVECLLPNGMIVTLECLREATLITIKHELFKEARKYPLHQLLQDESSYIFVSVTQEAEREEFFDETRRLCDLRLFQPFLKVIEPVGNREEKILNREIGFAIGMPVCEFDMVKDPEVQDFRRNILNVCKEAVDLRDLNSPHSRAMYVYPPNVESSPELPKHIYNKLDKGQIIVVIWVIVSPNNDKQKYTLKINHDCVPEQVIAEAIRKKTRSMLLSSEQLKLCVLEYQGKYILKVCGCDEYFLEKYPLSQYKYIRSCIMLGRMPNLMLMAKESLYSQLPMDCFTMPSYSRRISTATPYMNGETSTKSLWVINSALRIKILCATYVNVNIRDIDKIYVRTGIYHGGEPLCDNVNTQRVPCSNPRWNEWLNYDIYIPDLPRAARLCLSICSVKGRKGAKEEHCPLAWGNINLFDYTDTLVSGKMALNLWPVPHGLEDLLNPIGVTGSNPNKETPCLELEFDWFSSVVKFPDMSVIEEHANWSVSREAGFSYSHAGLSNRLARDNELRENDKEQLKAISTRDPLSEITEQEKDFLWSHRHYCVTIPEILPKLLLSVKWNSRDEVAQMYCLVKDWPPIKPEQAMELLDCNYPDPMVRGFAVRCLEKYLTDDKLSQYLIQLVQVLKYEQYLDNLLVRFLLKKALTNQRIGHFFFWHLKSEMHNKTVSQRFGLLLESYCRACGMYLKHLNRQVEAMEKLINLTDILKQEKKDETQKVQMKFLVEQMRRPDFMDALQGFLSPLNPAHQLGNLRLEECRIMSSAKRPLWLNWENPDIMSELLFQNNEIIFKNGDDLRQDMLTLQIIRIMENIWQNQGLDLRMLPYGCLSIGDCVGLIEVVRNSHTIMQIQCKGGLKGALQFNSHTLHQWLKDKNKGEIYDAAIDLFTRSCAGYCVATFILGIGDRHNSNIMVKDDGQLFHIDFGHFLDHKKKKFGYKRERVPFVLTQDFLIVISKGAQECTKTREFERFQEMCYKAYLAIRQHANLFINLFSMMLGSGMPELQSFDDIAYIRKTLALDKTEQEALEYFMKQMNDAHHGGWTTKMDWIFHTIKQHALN
Sequence (P27986 whole entry partner): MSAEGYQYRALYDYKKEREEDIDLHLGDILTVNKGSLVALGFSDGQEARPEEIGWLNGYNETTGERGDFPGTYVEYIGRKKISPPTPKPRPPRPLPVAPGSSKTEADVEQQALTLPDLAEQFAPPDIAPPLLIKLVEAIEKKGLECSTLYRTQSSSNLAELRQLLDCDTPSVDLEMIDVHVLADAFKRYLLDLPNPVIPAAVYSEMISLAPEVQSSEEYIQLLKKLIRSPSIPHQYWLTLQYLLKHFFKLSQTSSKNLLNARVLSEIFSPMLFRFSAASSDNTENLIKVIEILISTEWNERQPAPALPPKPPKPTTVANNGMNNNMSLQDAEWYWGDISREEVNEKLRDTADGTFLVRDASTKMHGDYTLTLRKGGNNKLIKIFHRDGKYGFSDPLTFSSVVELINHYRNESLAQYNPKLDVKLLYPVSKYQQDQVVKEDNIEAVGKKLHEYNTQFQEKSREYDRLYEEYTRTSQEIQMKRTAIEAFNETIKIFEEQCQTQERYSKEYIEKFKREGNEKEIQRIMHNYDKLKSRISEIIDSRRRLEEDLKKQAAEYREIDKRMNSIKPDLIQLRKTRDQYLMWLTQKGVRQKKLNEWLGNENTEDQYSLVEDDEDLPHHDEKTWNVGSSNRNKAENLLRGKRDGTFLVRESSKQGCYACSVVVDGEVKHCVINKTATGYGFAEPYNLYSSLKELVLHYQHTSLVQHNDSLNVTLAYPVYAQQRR
procedure-details: PI3Kα enzyme activity inhibition IC50 evaluation assay
Assay type: biochemical
test-parameters: ratio PI3Kα vs PI3Kδ
attribute-measured: α/δ selectivity

# example entries with known answers
smiles-data	α/δ selectivity
CNC1CCN(Cc2c(C)sc3c(-c4cnc(OC)c(NS(C)(=O)=O)c4)nc(N4CCOCC4)nc23)CC1	42
Cc1nn(C)c(C)c1-c1nc(N2CCOCC2)nc2c(CN3CCN(C(=O)C(C)C)CC3)csc12	19
COc1ncc(-c2nc(N3CCOCC3)nc3c(CN4CCC(C)CC4)c(C)sc23)cc1NS(C)(=O)=O	390
COc1ncc(-c2nc(N3CCOCC3)nc3c(CN4CCC(C(C)(C)F)CC4)c(C)sc23)cc1NS(C)(=O)=O	401
COc1ncc(-c2nc(N3CCOCC3)nc3c(CN4CCN(C(=O)C(C)(C)C)CC4)csc23)cc1NS(C)(=O)=O	23

[A] COc1ncc(-c2nc(N3CCOCC3)nc3c(CN4CCN(C(=O)OC(C)(C)C)CC4)csc23)cc1NS(C)(=O)=O
[B] COc1ncc(-c2nc(N3CCOCC3)nc3c(CN4CCN(C(=O)N5CCCC5)CC4)csc23)cc1NS(C)(=O)=O
[C] COc1ncc(-c2nc(N3CCOCC3)nc3c(CN4CCN(CC(F)(F)F)CC4)csc23)cc1NS(C)(=O)=O
Could you please order the items by α/δ selectivity, going from the lowest number to the highest? Arrange the labels as the request states and list them.
B, A, C

[P] COc1ncc(-c2nc(N3CCOCC3)nc3c(CN4CCN(C(C)(C)CO)CC4)c(C)sc23)cc1NS(C)(=O)=O
[Q] COc1ncc(-c2nc(N3CCOCC3)nc3c(CN4CCC(C(C)(C)OC)CC4)c(C)sc23)cc1NS(C)(=O)=O
API: POST /compare with P and Q ; response names the item with higher α/δ selectivity. Bench note: the answer is the label of the chosen record.
Q

[I] COc1ncc(-c2nc(N3CCOCC3)nc3c(CN4CCC(C(C)C)CC4)c(C)sc23)cc1NS(C)(=O)=O
[II] COc1ncc(-c2nc(N3CCOCC3)nc3ccoc23)cc1NS(C)(=O)=O
Lab log: flag the item ( I or II ) with the smaller α/δ selectivity figure. Lab note: record the label of whichever item you select.
II

[I] COc1ncc(-c2nc(N3CCOCC3)nc3c(CN4CCC(C5CC5)CC4)c(C)sc23)cc1NS(C)(=O)=O
[II] CN1CCN(Cc2csc3c(-c4cncc(NS(C)(=O)=O)c4)nc(N4CCOCC4)nc23)CC1
Field: entry with larger α/δ selectivity (options I / II ). Identify your selection by its label.
I
(I: 627, II: 19)
